assay: growth suppression of yeast trafficking mutant, preliminary HTS, modulators of trafficking downstream of Golgi apparatus project, 1536-format plate, OD 615 nm (AID 637); details: yeast transport mutant growth, absorbance 615 nm, 18 h; hits give high values; further: test concentration not given here
measuredAttribute: inhibition (%)
Write the number in % without appending the unit.

>  <molecule>
c1ccn2c(SCc3cn4ccsc4n3)nnc2c1

>  <readoutUnits>
%

>  <inhibition>
3.49

$$$$
>  <molecule>
O=C1C(C=NCCCn2ccnc2)=C(O)c2ccccc21

>  <readoutUnits>
%

>  <inhibition>
-1.75

$$$$
>  <molecule>
Cc1oc2nc(SCCCC(=O)NCCCO)nc(N)c2c1C

>  <readoutUnits>
%

>  <inhibition>
4.75

$$$$
>  <molecule>
O=C1CC(c2ccco2)=Nc2ccccc2N1

>  <readoutUnits>
%

>  <inhibition>
-3.06

$$$$
>  <molecule>
O=C(CSc1n[nH]c(-c2cccs2)n1)N1CCN(S(=O)(=O)c2ccccc2)CC1

>  <readoutUnits>
%

>  <inhibition>
9.84

$$$$

Q: Fill in: inhibition of O=C(O)C1CC(=O)N(c2ccc(Br)cc2)C1 (centres undefined) is ___
Result: -4.1

Q: Fill in: inhibition of Cc1ccsc1C1C2=C(CCCC2=O)Nc2ncnn21 (centres undefined) is ___
Result: -1.31

Q: Fill in: inhibition of COC(=O)c1cc(Br)c(=O)n(-c2ccc(OC)cc2)c1 is ___
Result: 0.65

Q: Fill in: inhibition of C/C(N)=C(/C#N)C(=O)CSc1nnc(Nc2cccc(C)c2)s1 is ___
Result: 0.65

Q: Fill in: inhibition of O=C(Nc1cccnc1)Nc1ccc2c(c1)OCO2 is ___
Result: 6.03

Q: Fill in: inhibition of COc1cc2c(cc1OC)C(c1cc(OC)c(OC)c(OC)c1)NCC2 (centres undefined) is ___
Result: -0.97
